Tested on: LCLC-103H
Assay Summary: relative viability (nuclei count vs DMSO), 5 days (fraction); higher = more cells survive
Run Conditions: first compound 0.01 µM
Recorded Metric: relative viability
The answer should be written as a number, with no unit following it.

[Q] Give relative viability for this entry on LCLC-103H: Cc1cn(-c2cc(NC(=O)c3ccc(C)c(Nc4nccc(-c5cccnc5)n4)c3)cc(C(F)(F)F)c2)cn1 [Nilotinib] + O=C(c1cc(Cc2n[nH]c(=O)c3ccccc23)ccc1F)N1CCN(C(=O)C2CC2)CC1 [Olaparib] (partner 8 µM)
[A] 0.969

[Q] Give relative viability for this entry on LCLC-103H: Cc1cn(-c2cc(NC(=O)c3ccc(C)c(Nc4nccc(-c5cccnc5)n4)c3)cc(C(F)(F)F)c2)cn1 [Nilotinib] + N=C(N)NC(=N)NCCc1ccccc1 [Phenformin] (partner 250 µM)
[A] 0.338

[Q] Give relative viability for this entry on LCLC-103H: Cc1cn(-c2cc(NC(=O)c3ccc(C)c(Nc4nccc(-c5cccnc5)n4)c3)cc(C(F)(F)F)c2)cn1 [Nilotinib] + CC(=O)Nc1cccc(-n2c(=O)n(C3CC3)c(=O)c3c(Nc4ccc(I)cc4F)n(C)c(=O)c(C)c32)c1 [Trametinib] (partner 0.02 µM)
[A] 0.75

[Q] Give relative viability for this entry on LCLC-103H: Cc1cn(-c2cc(NC(=O)c3ccc(C)c(Nc4nccc(-c5cccnc5)n4)c3)cc(C(F)(F)F)c2)cn1 [Nilotinib] + CCNC(=O)c1noc(-c2cc(C(C)C)c(O)cc2O)c1-c1ccc(CN2CCOCC2)cc1 [Luminespib] (partner 0.01 µM)
[A] 1.33

---

Test system: HCC-366
Assay Summary: relative viability (nuclei count vs DMSO), 5 days (fraction); higher = more cells survive
Run Conditions: first compound 0.06325 µM
Recorded Metric: relative viability
The answer should be written as a number, with no unit following it.

[Q] Identify measured relative viability corresponding to CCNC(=O)c1noc(-c2cc(C(C)C)c(O)cc2O)c1-c1ccc(CN2CCOCC2)cc1 [Luminespib] + CC(C)C[C@H](NC(=O)[C@H](Cc1ccccc1)NC(=O)c1cnccn1)B(O)O [Bortezomib] (partner 0.002 µM)
[A] 0.025

[Q] Identify measured relative viability corresponding to CCNC(=O)c1noc(-c2cc(C(C)C)c(O)cc2O)c1-c1ccc(CN2CCOCC2)cc1 [Luminespib] + O=C(c1cc(Cc2n[nH]c(=O)c3ccccc23)ccc1F)N1CCN(C(=O)C2CC2)CC1 [Olaparib] (partner 8 µM)
[A] 0.0205

[Q] Identify measured relative viability corresponding to CCNC(=O)c1noc(-c2cc(C(C)C)c(O)cc2O)c1-c1ccc(CN2CCOCC2)cc1 [Luminespib] + C[C@]1(O)C[C@@H](c2nc(-c3ccc4ccc(-c5ccccc5)nc4c3)c3c(N)nccn32)C1 [Linsitinib] (partner 1 µM)
[A] 0.0199

[Q] Identify measured relative viability corresponding to CCNC(=O)c1noc(-c2cc(C(C)C)c(O)cc2O)c1-c1ccc(CN2CCOCC2)cc1 [Luminespib] + O=C(CCCCCCC(=O)Nc1ccccc1)NO [Vorinostat] (partner 1 µM)
[A] 0.0252

[Q] Identify measured relative viability corresponding to CCNC(=O)c1noc(-c2cc(C(C)C)c(O)cc2O)c1-c1ccc(CN2CCOCC2)cc1 [Luminespib] + Nc1ncn([C@H]2C[C@H](O)[C@@H](CO)O2)c(=O)n1 [Decitabine] (partner 2 µM)
[A] 0.0527
